Below: a set of entries, each annotated with reported tissue uptake at 1 h.
assay: in vivo; details: female, athymic nude, mouse, tumor, iv, uptake Tumor 1 h, ^68Ga-labeled; HEK-FAP tumor; PET/CT; 1 h post tracer injection
Numbered stars: 1 amine (or outer) side, 2 acyl side, 3 side chain; on linkers, the order of the positions; unused ones are H or OH. Bridge positions count the residues as written; N and C are the ends. Square brackets hold non-standard residues; d marks the D form. Peptide text beside a SMILES is read from it. * marks the point of attachment. ξ: configuration not given here. X7 = O=C(CCP(=O)(O)CN1CCN(CP(=O)(O)CO)CCN(CP(=O)(O)CO)CC1)NCCSCc1cc(C[*:1])cc(C[*:2])c1; X11 = O=C(O)CN1CCN(CC(=O)O)CCN(C(CCC(=O)NCCSCc2cc(C[*:1])cc(C[*:2])c2)C(=O)O)CC1; CO = O=C([*:1])[*:2]; ξC = NC(CS)C(=O)O; NHBu = CCCCN*
Measurement Label: tissue uptake at 1 h (%ID/g)

| Compound | Recorded Measurement |
| --- | --- |
| CCCCNC(=O)N[C@H]1CSCc2cc(CSCCNC(=O)CCC(C(=O)O)N3CCN(CC(=O)O)CCN(CC(=O)O)CC3)cc(c2)CSCC(C(=O)O)NC(=O)[C@H](Cc2ccccc2)NC(=O)[C@H](CCC(=O)O)NC(=O)[C@H]([C@@H](C)O)NC(=O)[C@@H]2CCCN2C(=O)[C@@H]2CCCN2C1=O (stereo partly drawn) [3BP-4724] ({NHBu-CO}-CPPTEF[ξC]-OH; linker 1-7 via X11) | 4.37 |
| CCCCNC(=O)N[C@H]1CSCc2cc(CSCCNC(=O)CCP(=O)(O)CN3CCN(CP(=O)(O)CO)CCN(CP(=O)(O)CO)CC3)cc(c2)CSCC(C(=O)O)NC(=O)[C@H](Cc2ccccc2)NC(=O)[C@H](CCC(N)=O)NC(=O)[C@H]([C@@H](C)O)NC(=O)[C@@H]2CCCN2C(=O)[C@@H]2CCCN2C1=O (stereo partly drawn) | 9.42 |
| CCCCNC(=O)N[C@H]1CSCc2cc(CSCCNC(=O)CCP(=O)(O)CN3CCN(CP(=O)(O)CO)CCN(CP(=O)(O)CO)CC3)cc(c2)CSCC(C(=O)O)NC(=O)[C@H](Cc2ccccc2)NC(=O)[C@H](CCC(=O)O)NC(=O)[C@H]([C@@H](C)O)NC(=O)[C@@H]2CCCN2C(=O)[C@@H]2CCCN2C1=O (stereo partly drawn) [3BP-4778] ({NHBu-CO}-CPPTEF[ξC]-OH; linker 1-7 via X7) | 4.06 |

###

biological target: Human recombinant FAP (Homo sapiens, UniProt Q12884); test: FRET-based FAP protease activity assay; format: biochemical; design: purchased R&D systems 3715-SE; conditions: pIC50 Category (Activity), FRET-peptide substrate, 37° C.
Measurement Label: IC50

| Sample Smiles | Recorded Measurement |
| --- | --- |
| CCCCNC(=O)N[C@H]1CSCc2cc(CSCCNC(=O)CN3CCN(CC(=O)O)CCN(CC(=O)O)CCN(CC(=O)O)CC3)cc(c2)CSC[C@@H](C(=O)O)NC(=O)[C@H](Cc2ccccc2)NC(=O)[C@H](CCC(N)=O)NC(=O)[C@H]([C@@H](C)O)NC(=O)[C@@H]2CCCN2C(=O)[C@@H]2CCCN2C1=O | < 10 nM |
| CCCCNC(=O)N[C@H]1CSCc2cc(CSCCNC(=O)C(CNCCN)CNCCN)cc(c2)CSC[C@@H](C(=O)O)NC(=O)[C@H](Cc2ccccc2)NC(=O)[C@H](CCC(N)=O)NC(=O)[C@H]([C@@H](C)O)NC(=O)[C@@H]2CCCN2C(=O)[C@@H]2CCCN2C1=O | < 10 nM |
| C#CCCC(=O)N[C@H]1CSCc2cc(CSCCNC(=O)CN3CCN(CC(=O)O)CCN(CC(=O)O)CCN(CC(=O)O)CC3)cc(c2)CSC[C@@H](C(=O)O)NC(=O)[C@H](Cc2ccccc2)NC(=O)[C@H](CCC(N)=O)NC(=O)[C@H]([C@@H](C)O)NC(=O)[C@@H]2CCCN2C(=O)[C@@H]2CCCN2C1=O | 100 to 794 nM |
| C#CCCCC(=O)N[C@H]1CSCc2cc(CSCCNC(=O)CN3CCN(CC(=O)O)CCN(CC(=O)O)CCN(CC(=O)O)CC3)cc(c2)CSC[C@@H](C(=O)O)NC(=O)[C@H](Cc2ccccc2)NC(=O)[C@H](CCC(N)=O)NC(=O)[C@H]([C@@H](C)O)NC(=O)[C@@H]2CCCN2C(=O)[C@@H]2CCCN2C1=O | 10 to 79.4 nM |

###

biological target: Human recombinant FAP (Homo sapiens); test: FRET-based FAP protease activity assay; format: biochemical; design: purchased R&D systems 3715-SE; conditions: pIC50 Category (Activity), FRET-based FAP protease activity assay, recombinant human FAP, 37° C.
pIC50: −log10 of the molar value. Numbered stars: 1 amine (or outer) side, 2 acyl side, 3 side chain; on linkers, the order of the positions; unused ones are H or OH. Bridge positions count the residues as written; N and C are the ends. Square brackets hold non-standard residues; d marks the D form. Peptide text beside a SMILES is read from it. * marks the point of attachment. X13 = O=C(O)CN1CCN(CC(=O)O)CCN(CC(=O)N2CCN(Cc3cc(C[*:1])cc(C[*:2])c3)CC2)CCN(CC(=O)O)CC1; mXylylene = c1cc(C[*:1])cc(C[*:2])c1; Pentanesulfonyl = CCCCCS(=O)(=O)*
Below: a set of entries, each annotated with reported pIC50.
Measurement Label: pIC50

| Compound | Tested Target | Recorded Measurement |
| --- | --- | --- |
| CSCC[C@H](NC(C)=O)C(=O)N[C@@H]1CSCc2cccc(c2)CSC[C@@H](C(=O)N[C@@H](CC(=O)O)C(=O)N[C@@H](Cc2c[nH]cn2)C(=O)N[C@@H](Cc2ccccc2)C(=O)N[C@@H](CCCNC(=N)N)C(=O)N[C@@H](CC(=O)O)C(N)=O)NC(=O)[C@H](Cc2ccccc2)NC(=O)[C@H](CCC(=O)O)NC(=O)[C@H]([C@@H](C)O)NC(=O)[C@@H]2CCCN2C(=O)[C@@H]2CCCN2C1=O [3BP-3175] (Ac-M[dC]PPTEFCDHFRD-NH2; linker 2-8 via mXylylene) | Human recombinant FAP (Homo sapiens) | > 8.00 |
| CCCCCS(=O)(=O)N[C@H]1CSCc2cc(cc(CN3CCN(C(=O)CN4CCN(CC(=O)O)CCN(CC(=O)O)CCN(CC(=O)O)CC4)CC3)c2)CSC[C@@H](C(=O)N[C@@H](CC(=O)O)C(N)=O)NC(=O)[C@H](Cc2ccccc2)NC(=O)[C@H](CCC(N)=O)NC(=O)[C@H]([C@@H](C)O)NC(=O)[C@@H]2CCCN2C(=O)[C@@H]2CCCN2C1=O [3BP-3692] (Pentanesulfonyl-CPPTQFCD-NH2; linker 1-7 via X13) | Human recombinant FAP (Homo sapiens) | > 8.00 |
| CC(=O)N[C@@H](CCCC(=O)O)C(=O)N[C@H]1CSCc2cccc(c2)CSC[C@@H](C(N)=O)NC(=O)[C@H](Cc2ccccc2)NC(=O)[C@H](CCC(N)=O)NC(=O)[C@H]([C@@H](C)O)NC(=O)[C@@H]2CCCN2C(=O)[C@@H]2CCCN2C1=O | Human recombinant FAP (Homo sapiens) | < 6.00 |

###

molecular target: FAP-expressing human WI-38 fibroblasts (Homo sapiens)
Sequence (Q12884 whole entry): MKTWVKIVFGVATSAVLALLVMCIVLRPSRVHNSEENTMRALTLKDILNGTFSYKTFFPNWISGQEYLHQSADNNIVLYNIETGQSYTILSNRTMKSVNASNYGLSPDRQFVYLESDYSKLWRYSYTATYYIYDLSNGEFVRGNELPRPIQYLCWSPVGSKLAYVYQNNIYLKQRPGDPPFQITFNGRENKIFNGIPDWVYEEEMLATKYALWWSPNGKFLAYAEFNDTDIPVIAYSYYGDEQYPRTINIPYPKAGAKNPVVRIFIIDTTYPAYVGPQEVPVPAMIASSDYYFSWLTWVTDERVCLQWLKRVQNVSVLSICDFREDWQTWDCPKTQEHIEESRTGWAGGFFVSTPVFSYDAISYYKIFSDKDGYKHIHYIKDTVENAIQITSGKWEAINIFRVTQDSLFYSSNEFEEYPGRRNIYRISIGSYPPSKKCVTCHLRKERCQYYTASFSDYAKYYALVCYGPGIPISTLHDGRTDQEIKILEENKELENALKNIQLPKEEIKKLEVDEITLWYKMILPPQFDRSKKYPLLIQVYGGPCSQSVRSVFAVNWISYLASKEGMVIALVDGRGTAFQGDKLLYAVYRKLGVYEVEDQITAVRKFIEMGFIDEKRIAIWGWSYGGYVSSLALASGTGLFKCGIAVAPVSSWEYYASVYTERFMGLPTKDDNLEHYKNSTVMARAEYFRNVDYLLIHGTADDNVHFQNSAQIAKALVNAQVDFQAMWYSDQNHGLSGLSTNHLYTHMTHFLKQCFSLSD
Numbered stars: 1 amine (or outer) side, 2 acyl side, 3 side chain; on linkers, the order of the positions; unused ones are H or OH. Bridge positions count the residues as written; N and C are the ends. Square brackets hold non-standard residues; d marks the D form. Peptide text beside a SMILES is read from it. * marks the point of attachment. ξ: configuration not given here. TBMB(SCH2CH2NH-DOTA) = O=C(O)CN1CCN(CC(=O)O)CCN(CC(=O)NCCSCc2cc(C[*:1])cc(C[*:2])c2)CCN(CC(=O)O)CC1; X10 = O=C(O)CN1CCN(CC(=O)O)CCN(C(CCC(=O)NCCCOCCOCCOCCCN*)C(=O)O)CC1; mXylylene = c1cc(C[*:1])cc(C[*:2])c1; Suc = O=C(CCC(=O)[*:2])[*:1]; Nle = CCCC[C@H](N)C(=O)O; CO = O=C([*:1])[*:2]; ξC = NC(CS)C(=O)O; Sar = CNCC(=O)O; NHBu = CCCCN*
Below: a set of entries, each annotated with reported IC50.

| Compound | Tested Target | IC50 |
| --- | --- | --- |
| CCCC[C@H](NC(=O)CCC(=O)NCCCOCCOCCOCCCNC(=O)CCC(C(=O)O)N1CCN(CC(=O)O)CCN(CC(=O)O)CC1)C(=O)N[C@H]1CSCc2cccc(c2)CSCC(C(N)=O)NC(=O)[C@H](Cc2ccccc2)NC(=O)[C@H](CCC(=O)O)NC(=O)[C@H]([C@@H](C)O)NC(=O)[C@@H]2CCCN2C(=O)[C@@H]2CCCN2C1=O (stereo partly drawn) [3BP-4743] ({X10-Suc}-[Nle]CPPTEF[ξC]-NH2; linker 2-8 via mXylylene) | FAP-expressing human WI-38 fibroblasts (Homo sapiens) | 10 to 79.4 nM |
| CCCC[C@H](NC(=O)CCC(=O)NCCCOCCOCCOCCCNC(=O)CN1CCN(C(=O)C(CNCCN)CNCCN)CC1)C(=O)N[C@H]1CSCc2cncc(c2)CSCC(C(=O)O)NC(=O)[C@H](Cc2ccccc2)NC(=O)[C@H](CCC(N)=O)NC(=O)[C@H]([C@@H](C)O)NC(=O)[C@@H]2CCCN2C(=O)[C@@H]2CCCN2C1=O (stereo partly drawn) | FAP-expressing human WI-38 fibroblasts (Homo sapiens) | 10 to 79.4 nM |
| CCCCNC(=O)N[C@H]1CSCc2cc(CSCCNC(=O)CN3CCN(CC(=O)O)CCN(CC(=O)O)CCN(CC(=O)O)CC3)cc(c2)CSC[C@@H](C(N)=O)NC(=O)[C@H](Cc2ccccc2)NC(=O)[C@H](CCC(N)=O)NC(=O)[C@H]([C@@H](C)O)NC(=O)[C@@H]2CCCN2C(=O)CN(C)C1=O [3BP-4621] ({NHBu-CO}-C[Sar]PTQFC-NH2; linker 1-7 via TBMB(SCH2CH2NH-DOTA)) | FAP-expressing human WI-38 fibroblasts (Homo sapiens) | < 10 nM |
